# System: C. albicans200 (MDR00200)
# METHOD_NOTES: Agar well-diffusion antimicrobial sensitivity assay
# Type: cell-based, Candida albicans
# PARTICULARS: Candida albicans, read-out: Inhibition Zone (IZ)
REPORTED_METRIC: zone of inhibition at 100000 µg/mL (mm)
Give a bare numeral; the unit mm is implied.

N#CC(=Cc1ccc(Cl)cc1)C1=NC(=O)C(=Cc2cn(-c3ccccc3)nc2-c2ccccc2)S1 [Compound 5b]
25
Cc1c(NN=C2SC(C(C#N)=Cc3ccccc3)=NC2=O)c(=O)n(-c2ccccc2)n1C [Compound 15a]
20
CCOC(=O)C=c1[nH]c(=O)c(=Cc2cn(-c3ccccc3)nc2-c2ccccc2)s1 [Compound 3c]
14

Qu. State, in one line, measured zone of inhibition at 100000 µg/mL of Cc1c(NN=C2SC(C(C#N)=Cc3ccc(Cl)cc3)=NC2=O)c(=O)n(-c2ccccc2)n1C [Compound 15b]
Ans. 18
